Molecular target: human PRMT1 (Homo sapiens, UniProt Q99873)
Sequence (Q99873 with tags, fused parts or gaps): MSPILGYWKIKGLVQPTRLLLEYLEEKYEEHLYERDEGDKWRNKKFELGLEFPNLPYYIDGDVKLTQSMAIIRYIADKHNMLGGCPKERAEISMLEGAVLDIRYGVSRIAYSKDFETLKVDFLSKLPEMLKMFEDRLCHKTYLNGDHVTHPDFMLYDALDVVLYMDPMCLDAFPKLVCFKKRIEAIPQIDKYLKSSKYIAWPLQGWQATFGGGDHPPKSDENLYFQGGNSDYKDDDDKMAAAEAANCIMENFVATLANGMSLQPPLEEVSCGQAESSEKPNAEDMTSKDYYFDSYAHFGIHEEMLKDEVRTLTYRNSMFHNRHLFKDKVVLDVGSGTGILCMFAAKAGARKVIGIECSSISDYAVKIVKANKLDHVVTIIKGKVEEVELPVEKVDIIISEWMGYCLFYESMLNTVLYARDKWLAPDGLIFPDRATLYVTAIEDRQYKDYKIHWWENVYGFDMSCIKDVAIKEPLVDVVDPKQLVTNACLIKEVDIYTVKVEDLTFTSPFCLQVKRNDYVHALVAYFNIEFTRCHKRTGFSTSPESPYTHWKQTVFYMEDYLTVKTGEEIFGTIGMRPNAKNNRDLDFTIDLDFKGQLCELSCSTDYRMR
The entries below come with measured IC50 values attached.
assay_readout: IC50

> print(dat)
                                    compound      obs.value
 1  CC1CCC(c2c[nH]nc2CN(C)CCN)CC1 (centres unmarked)       < 0.1 µM
 2            CNCCN(C)Cc1c[nH]nc1C1CCN(C)CC1       < 0.1 µM
 3           CN(CCN)Cc1c[nH]nc1CCc1ccc(F)cc1       < 0.1 µM
 4  CNCCN(C)Cc1c[nH]nc1/C=C/c1ccc(-c2ccccc2)cc1       < 0.1 µM
 5        Cc1ccc(/C=C/c2n[nH]cc2CN(C)CCN)cc1       < 0.1 µM
 6       COc1cccc(/C=C/c2n[nH]cc2CN(C)CCN)c1       < 0.1 µM
 7       CN(CCN)Cc1c[nH]nc1/C=C/c1ccc(F)cc1F       < 0.1 µM
 8  CN(CCN)Cc1c[nH]nc1/C=C/c1cccc(C(F)(F)F)c1       < 0.1 µM
 9                   CN(CCN)Cc1c[nH]nc1C1CC1   1.01 to 3 µM
10         CNCCN(C)Cc1c[nH]nc1C#Cc1ccc(F)cc1       < 0.1 µM
11  CC1CCC(c2n[nH]cc2CN(C)CCN)CC1 (centres unmarked)       < 0.1 µM
12                   CC(C)c1n[nH]cc1CN(C)CCN   1.01 to 3 µM
13        CNCCN(C)Cc1c[nH]nc1C#Cc1cccc(OC)c1       < 0.1 µM
14  CN(CCN)Cc1c[nH]nc1/C=C/c1ccc(C(F)(F)F)cc1       < 0.1 µM
15   CNCCN(C)Cc1c[nH]nc1C1CCN(C(=O)C(C)C)CC1       < 0.1 µM
16     CN(CCN)Cc1c[nH]nc1/C=C/c1cc(F)cc(F)c1       < 0.1 µM
17                CN(CCN)Cc1n[nH]cc1C1CCCCC1       < 0.1 µM
18          CN(CCN)Cc1n[nH]cc1C1CCC(C)(C)CC1       < 0.1 µM
19                  CC(C)Cc1n[nH]cc1CN(C)CCN  0.101 to 1 µM
20  CNCCN(C)Cc1c[nH]nc1/C=C/c1ccc(C(F)(F)F)cc1       < 0.1 µM
21      CNCCN(C)Cc1c[nH]nc1/C=C/c1ccc(OC)cc1       < 0.1 µM
22  CN(CCN)Cc1n[nH]cc1C1CCC(N2CCOCC2)CC1 (centres unmarked)   1.01 to 3 µM
23          CN(CCN)Cc1c[nH]nc1/C=C/Cc1ccccc1       < 0.1 µM
24                COC/C=C/c1n[nH]cc1CN(C)CCN  0.101 to 1 µM
25                CN(CCN)Cc1c[nH]nc1C1CCCCC1       < 0.1 µM
26                CN(CCN)Cc1c[nH]nc1C1=CCCC1  0.101 to 1 µM
27  CNCCN(C)Cc1c[nH]nc1C1CCN(C(=O)Cc2ccccc2)CC1  0.101 to 1 µM
28                     CCCc1n[nH]cc1CN(C)CCN  0.101 to 1 µM
29   COc1cc(/C=C/c2n[nH]cc2CN(C)CCN)cc(OC)c1       < 0.1 µM
30  CN(CCN)Cc1c[nH]nc1/C=C/c1cc(C(F)(F)F)cc(C(F)(F)F)c1       < 0.1 µM
31               CN(CCN)Cc1c[nH]nc1C1=CCOCC1  0.101 to 1 µM
32          CN(CCN)Cc1c[nH]nc1C1CCC(C)(C)CC1       < 0.1 µM
33  CNCCN(C)Cc1c[nH]nc1C#Cc1ccc(C(C)(C)C)cc1       < 0.1 µM
34               CNCCN(C)Cc1c[nH]nc1C1CCNCC1       < 0.1 µM
35        CN(CCN)Cc1c[nH]nc1/C=C/c1cccc(F)c1       < 0.1 µM
